# TESTED_TARGET: Recombinant human IDO enzyme (IDO1 enzyme) (Homo sapiens, UniProt P14902)
# Construct: purchased BPS Bioscience, USA
# Sequence (P14902 whole entry): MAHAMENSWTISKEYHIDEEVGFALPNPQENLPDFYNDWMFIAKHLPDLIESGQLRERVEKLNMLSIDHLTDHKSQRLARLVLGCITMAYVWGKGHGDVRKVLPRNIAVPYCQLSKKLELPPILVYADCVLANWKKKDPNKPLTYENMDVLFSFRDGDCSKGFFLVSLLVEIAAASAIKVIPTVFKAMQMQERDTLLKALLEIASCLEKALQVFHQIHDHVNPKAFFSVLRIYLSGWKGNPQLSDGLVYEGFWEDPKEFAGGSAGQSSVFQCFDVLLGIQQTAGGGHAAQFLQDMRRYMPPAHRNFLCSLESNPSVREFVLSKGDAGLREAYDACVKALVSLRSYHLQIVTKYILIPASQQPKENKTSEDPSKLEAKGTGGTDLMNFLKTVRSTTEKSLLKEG
# TEST_METHOD_NOTES: In vitro IDO enzymatic activity assay (kynurenine colour reaction, 492 nm)
# Assay type: biochemical
# MEASUREMENT_SETUP: tested compound concentration 200 nM; recombinant human IDO1; read-out: IDO Enzymatic Inhibition Rate (%) (200 nM)
ENDPOINT: inhibition at 0.2 µM (%)
Numbers only, in %.

Past entries and their recorded results:
COMPOUND	inhibition at 0.2 µM / %
O=C(COc1ccc2[nH]c3ccccc3c2c1)N1CCC(C(O)CC2c3ccccc3-c3cncn32)CC1 (stereo not shown)	85
CN(CC(=O)N1CCC(C(O)CC2c3ccccc3-c3cncn32)CC1)c1ccc(C#N)cc1 (stereo not shown)	81
O=C(COc1ccc2oc3ccccc3c2c1)N1CCC(C(O)CC2c3ccccc3-c3cncn32)CC1 (stereo not shown)	88

Count: 3. Required value per item: inhibition at 0.2 µM.
1. O=C(COc1nc2ccccc2o1)N1CCC(C(O)CC2c3ccccc3-c3cncn32)CC1 (stereo not shown)
2. O=C(COC1CCCCC1)N1CCC(C(O)CC2c3ccccc3-c3cncn32)CC1 (stereo not shown)
3. CN(CC(=O)N1CCC(C(O)CC2c3ccccc3-c3cncn32)CC1)c1ccc([N+](=O)[O-])cc1 (stereo not shown)

A:
1. 83
2. 66
3. 84

Count: 6. Required value per item: inhibition at 0.2 µM.
1. COc1cccc(N(C)CC(=O)N2CCC(C(O)CC3c4ccccc4-c4cncn43)CC2)c1 (stereo not shown)
2. O=C(COc1ccc2[nH]ccc2c1)N1CCC(C(O)CC2c3ccccc3-c3cncn32)CC1 (stereo not shown)
3. O=C(COc1ccc2ncccc2c1)N1CCC(C(O)CC2c3ccccc3-c3cncn32)CC1 (stereo not shown)
4. O=C(COc1ccc(F)c(Cl)c1)N1CCC(C(O)CC2c3ccccc3-c3cncn32)CC1 (stereo not shown)
5. Cc1ccc(N(C)CC(=O)N2CCC(C(O)CC3c4ccccc4-c4cncn43)CC2)cc1C (stereo not shown)
6. Cc1ccc(OCC(=O)N2CCC(C(O)CC3c4ccccc4-c4cncn43)CC2)cc1C (stereo not shown)

A:
1. 85
2. 89
3. 80
4. 90
5. 82
6. 83
